Entry source: patent US20080312164A1

Tested on: MCF7 cells
Assay: Calcein AM cytotoxicity assay, MCF7
Assay type: cell-based
Details: Homo sapiens; MCF7, Calcein AM, 72 h; read-out: IC50
pIC50: −log10 of the molar value.
value kind: pIC50

>  <line notation>
S=C=NCc1ccccc1

>  <prefix operator>
=

>  <measured>
4.80

$$$$
>  <line notation>
S=C=NCc1ccc(-c2ccccc2)cc1

>  <prefix operator>
=

>  <measured>
5.54

$$$$
>  <line notation>
COc1cccc(CN=C=S)c1OC

>  <prefix operator>
=

>  <measured>
5.24

$$$$
>  <line notation>
S=C=NCCc1ccccc1

>  <prefix operator>
=

>  <measured>
4.63

$$$$
>  <line notation>
S=C=NCc1ccccc1-c1ccccc1

>  <prefix operator>
=

>  <measured>
5.80

$$$$
>  <line notation>
COc1cc(OC)c(CN=C=S)c(OC)c1

>  <prefix operator>
=

>  <measured>
5.24

$$$$
>  <line notation>
S=C=NCc1cccc(-c2ccccc2)c1

>  <prefix operator>
=

>  <measured>
5.60

$$$$
>  <line notation>
S=C=NCc1ccc(Oc2ccccc2)cc1

>  <prefix operator>
=

>  <measured>
5.20

$$$$
>  <line notation>
S=C=NCc1cccc2ccccc12

>  <prefix operator>
>

>  <measured>
5.50

$$$$
>  <line notation>
S=C=N[C@@H]1CCCc2ccccc21

>  <prefix operator>
=

>  <measured>
5.41

$$$$
